- Test system: U87MG cells (GC)
- Method notes: IC50 assay (MTS cell viability)
- Type: cell-based
- Experimental parameters: Homo sapiens, U-87 MG, 48 h
Metric name: pIC50
Answers are plain numbers, as −log10 of the molar value.

Exam item: Dear colleague, please send me the reported pIC50 for CC(C)=CCC[C@]1(C)C=Cc2c(O)c3c(c(CC=C(C)C)c2O1)O[C@]12C(=C[C@@H]4CC1C(C)(C)O[C@@]2(C/C=C(/C)C(N)=O)C4=O)C3=O [GA-amide, gambogic amide] when you can.
Marked response: 6.64

====

- System tested: His-WD2-7 (WD2 to WD7 repeats of WDR1) (Homo sapiens, UniProt O75083)
- Sequence (O75083 48-306 limits assumed): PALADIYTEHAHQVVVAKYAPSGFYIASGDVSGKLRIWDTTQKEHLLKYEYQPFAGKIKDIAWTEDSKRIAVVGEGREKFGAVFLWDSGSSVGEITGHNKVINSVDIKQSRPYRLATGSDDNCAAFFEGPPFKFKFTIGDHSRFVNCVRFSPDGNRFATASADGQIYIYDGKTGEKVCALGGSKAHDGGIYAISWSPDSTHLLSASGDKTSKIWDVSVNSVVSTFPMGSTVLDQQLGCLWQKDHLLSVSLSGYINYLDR
Metric name: Kd (µM)
Give bare numbers, in µM.

Exam item: Supply Kd measured with His-WD2-7 (WD2 to WD7 repeats of WDR1) (Homo sapiens, UniProt O75083) for CC(C)=CCC[C@]1(C)C=Cc2c(O)c3c(c(CC=C(C)C)c2O1)O[C@]12C(=C[C@@H]4CC1C(C)(C)O[C@@]2(C/C=C(/C)C(N)=O)C4=O)C3=O [GA-amide, gambogic amide] .
Marked response: 46.7
